# Experimental System: hCLEC12A-His fusion protein (human) (UniProt Q5QGZ9)
# Sequence (Q5QGZ9 65-265 limits assumed): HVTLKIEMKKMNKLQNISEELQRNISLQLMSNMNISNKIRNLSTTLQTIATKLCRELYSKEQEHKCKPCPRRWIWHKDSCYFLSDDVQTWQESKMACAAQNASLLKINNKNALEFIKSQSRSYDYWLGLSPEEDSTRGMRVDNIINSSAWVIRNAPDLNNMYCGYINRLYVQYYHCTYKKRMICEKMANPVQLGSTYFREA
# Method: SPR screening, semi-purified protein
kon values by entry
The response must be a number in M⁻¹ s⁻¹ with no trailing unit.

Task item: Recorded kon for F3′-1296 (bispecific antibody, part only; not given: Fc and unrelated binding arm, not shown: another chain or arm of the molecule; a dimerising Fc or GST) scFv: QLQLQESGPGLVKPSETLSLTCTVSGFSLTNYGLHWIRQPPGKCLEWIGVIWSGGKTDYNPSLKSRVTISKDTSKNQFSLKLSSVQANDTAVYYCARYDYDDSLDYWGQGTLVTVSSGGGGSGGGGSGGGGSGGGGSDIQMTQSPSSLSASVGDRVTITCHASQNINFWLSWYQQKPGKIPKLLIYEASNLHTGVPSRFSGSGSGTRFTLTISSLQPEDIATYYCQQSHSYPLTFGCGTKLEIK , please?
Reply: 874000

Task item: Recorded kon for AB0192 (bispecific antibody, part only; not given: Fc, unrelated binder arm, linkers, not shown: another chain or arm of the molecule; a dimerising Fc or GST; small tags and cut ends) scFv: EVQLVESGGGVVQPGGSLRLSCAASGFTFNAFGMHWVRQAPGKCLEWVAFISSGSTSIYYANTVKGRFTISRDNSKNTLYLQMNSLRAEDTAVYYCARDGYPTGGAMDYWGQGTSVTVSSGGGGSGGGGSGGGGSGGGGSDIQMTQSPSSLSASVGDRVTITCKASQDIYNYLSWFQQKPGKAPKPLIYRANILVSGVPSRFSGSGSGQDYTFTISSLQPEDIATYYCLQFDAFPFTFGCGTKLEIK , please?
Reply: 1.09e+06

Task item: Recorded kon for F3′-1297 (bispecific antibody, part only; not given: Fc and unrelated binding arm, not shown: another chain or arm of the molecule; a dimerising Fc or GST; small tags and cut ends) scFv: QLQLQESGPGLVKPSETLSLTCTVSGFSLTNYGLHWIRQPPGKCLEWIGVIWSGGKTDYNPSLKSRVTISKDTSKNQFSLKLSSVQANDTAVYYCAKYDYDDSLDYWGQGTLVTVSSGGGGSGGGGSGGGGSGGGGSDIQMTQSPSSLSASVGDRVTITCHASQNINFWLSWYQQKPGKAPKLLIYEASNLHTGVPSRFSGSGSGTRFTLTISSLQPEDIATYYCQQSHSYPLTFGCGTKLEIK , please?
Reply: 504000
